Origin of measurements: PubChem BioAssay AID1963420

Items are presented alongside their recorded viability, T/C.
Test system: 494315-158-R-J1-PDC complex spheroid growth, percent test/control;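 further: compound exposure lasted seven days after spheroids formed for three days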
Test: Anticancer human tumor 494315-158-R-J1-PDC patient-derived soft tissue sarcoma cell line growth inhibition [Asc]
Conditions: second compound 0.1 µM; first compound 0.316 µM; hits give low values
Excerpt: Multicellular complex tumor spheroid response to apoptosis pathway targeting inhibitors Alrizomadlin, Pelcitoclax, and Dasminapant in combination with a variety of drugs and investigational agents in selected tumor cell lines […] Compounds. […] If the clinical Cmax for an agent had not been determined, the highest concentration tested was 10 microM. […]

A selection of reference data follows.
COMPOUND	STUDY_TARGET	QUANTITY_NAME	RESULT
C#Cc1c(F)ccc2cc(O)cc(-c3ncc4c(N5CC6CCC(C5)N6)nc(OCC56CCCN5CC(F)C6)nc4c3F)c12 (centres undefined) + Cc1c(S(C)(=O)=O)c(-c2cc(F)cc(N3CCN(c4ccc(NS(=O)(=O)c5ccc(NC(CCN6CCC(C(=O)OCCCP(=O)(O)O)CC6)CSc6ccccc6)c(S(=O)(=O)C(F)(F)F)c5)cc4)CC3)c2)c(-c2ccc(Cl)cc2)n1C(C)C	494315-158-R-J1-PDC complex spheroid growth, percent test/control	viability, T/C	77.2%
C=CC(=O)N1CCN(c2nc(=O)n(-c3c(C)ccnc3C(C)C)c3nc(-c4c(O)cccc4F)c(F)cc23)C(C)C1 (centres undefined) + Cc1c(S(C)(=O)=O)c(-c2cc(F)cc(N3CCN(c4ccc(NS(=O)(=O)c5ccc(NC(CCN6CCC(C(=O)OCCCP(=O)(O)O)CC6)CSc6ccccc6)c(S(=O)(=O)C(F)(F)F)c5)cc4)CC3)c2)c(-c2ccc(Cl)cc2)n1C(C)C	494315-158-R-J1-PDC complex spheroid growth, percent test/control	viability, T/C	88.9%
C=C(F)C(=O)N1CCN(c2nc(OCC3CCCN3C)nc3c2CCN(c2cccc4cccc(Cl)c24)C3)CC1CC#N (centres undefined) + Cc1c(S(C)(=O)=O)c(-c2cc(F)cc(N3CCN(c4ccc(NS(=O)(=O)c5ccc(NC(CCN6CCC(C(=O)OCCCP(=O)(O)O)CC6)CSc6ccccc6)c(S(=O)(=O)C(F)(F)F)c5)cc4)CC3)c2)c(-c2ccc(Cl)cc2)n1C(C)C	494315-158-R-J1-PDC complex spheroid growth, percent test/control	viability, T/C	71.8%
C=CC(=O)N1CCN(c2nc(=O)n(-c3c(C)ccnc3C(C)C)c3nc(-c4c(O)cccc4F)c(F)cc23)C(C)C1 (centres undefined) + CNC(C)C(=O)NC1CN(S(=O)(=O)c2cccc(S(=O)(=O)N3CCC4CCC(C(=O)NC(c5ccccc5)c5ccccc5)N4C(=O)C(NC(=O)C(C)NC)C3)c2)CCC2CCC(C(=O)NC(c3ccccc3)c3ccccc3)N2C1=O	494315-158-R-J1-PDC complex spheroid growth, percent test/control	viability, T/C	62.1%

Q: Record CNC(C)C(=O)NC1CN(S(=O)(=O)c2cccc(S(=O)(=O)N3CCC4CCC(C(=O)NC(c5ccccc5)c5ccccc5)N4C(=O)C(NC(=O)C(C)NC)C3)c2)CCC2CCC(C(=O)NC(c3ccccc3)c3ccccc3)N2C1=O (centres undefined) + Cc1c(S(C)(=O)=O)c(-c2cc(F)cc(N3CCN(c4ccc(NS(=O)(=O)c5ccc(NC(CCN6CCC(C(=O)OCCCP(=O)(O)O)CC6)CSc6ccccc6)c(S(=O)(=O)C(F)(F)F)c5)cc4)CC3)c2)c(-c2ccc(Cl)cc2)n1C(C)C : what is its viability, T/C with 494315-158-R-J1-PDC complex spheroid growth, percent test/control?
Ans: 29.5%
